Biological target: Melanocortin receptor 3 (Homo sapiens)
Sequence (P41968 whole entry): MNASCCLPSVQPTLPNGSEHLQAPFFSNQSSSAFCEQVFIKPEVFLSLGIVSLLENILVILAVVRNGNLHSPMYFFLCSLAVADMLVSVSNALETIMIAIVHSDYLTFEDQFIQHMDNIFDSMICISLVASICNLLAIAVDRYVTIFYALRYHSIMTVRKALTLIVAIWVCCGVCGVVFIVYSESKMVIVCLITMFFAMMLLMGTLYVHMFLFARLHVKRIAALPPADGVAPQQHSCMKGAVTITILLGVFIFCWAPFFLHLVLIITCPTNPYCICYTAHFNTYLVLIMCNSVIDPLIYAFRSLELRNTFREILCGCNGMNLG
Assay: Agonist activity at human MC3R expressed in HEK293 cells assessed as induction of intracellular cAMP accumulation at 10 uM after 3 mins relative to MT-2
Type: functional, cell-based
Bridge positions count the residues as written; N and C are the ends. Square brackets hold non-standard residues; d marks the D form. Peptide text beside a SMILES is read from it. d2Nal = N[C@H](Cc1ccc2ccccc2c1)C(=O)O; Ac5c = NC1(C(=O)O)CCCC1; Ac4c = NC1(C(=O)O)CCC1; Aib = CC(C)(N)C(=O)O
Label Satisfied when max activation is at or above 80%; anything below gets Not satisfied.

Look over these answered cases.
COMPOUND | ASSIGNED LABEL
N=C(N)NCCC[C@@H]1NC(=O)[C@@H](Cc2ccc3ccccc3c2)NC(=O)[C@H](Cc2c[nH]cn2)NC(=O)C2(CCC2)NC(=O)C[C@@H](C(N)=O)NC(=O)[C@H](Cc2c[nH]c3ccccc23)NC1=O | Not satisfied
N=C(N)NCCC[C@@H]1NC(=O)[C@@H](Cc2ccccc2)NC(=O)[C@H](Cc2c[nH]cn2)NC(=O)C2(CCCC2)NC(=O)CC[C@@H](C(N)=O)NC(=O)[C@H](Cc2c[nH]c3ccccc23)NC1=O ([Ac5c]H[dF]RWE-NH2; lactam N-6) | Satisfied
CC1(C)NC(=O)C[C@@H](C(N)=O)NC(=O)[C@H](Cc2c[nH]c3ccccc23)NC(=O)[C@H](CCCNC(=N)N)NC(=O)[C@@H](Cc2ccc3ccccc3c2)NC(=O)[C@H](Cc2c[nH]cn2)NC1=O ([Aib]H[d2Nal]RWD-NH2; lactam N-6) | Satisfied
N=C(N)NCCC[C@@H]1NC(=O)[C@@H](Cc2ccccc2)NC(=O)[C@H](Cc2c[nH]cn2)NC(=O)C2(CCC2)NC(=O)CC[C@@H](C(N)=O)NC(=O)[C@H](Cc2c[nH]c3ccccc23)NC1=O ([Ac4c]H[dF]RWE-NH2; lactam N-6) | Satisfied
N=C(N)NCCC[C@@H]1NC(=O)[C@@H](Cc2ccc3ccccc3c2)NC(=O)[C@H](Cc2c[nH]cn2)NC(=O)C2(CCCCC2)NC(=O)C[C@@H](C(N)=O)NC(=O)[C@H](Cc2c[nH]c3ccccc23)NC1=O | Not satisfied
N=C(N)NCCC[C@@H]1NC(=O)[C@@H](Cc2ccccc2)NC(=O)[C@H](Cc2c[nH]cn2)NC(=O)C2(CCCCC2)NC(=O)CC[C@@H](C(N)=O)NC(=O)[C@H](Cc2c[nH]c3ccccc23)NC1=O | Satisfied

Is max activation for "N=C(N)NCCC[C@@H]1NC(=O)[C@@H](Cc2ccc3ccccc3c2)NC(=O)[C@H](Cc2c[nH]cn2)NC(=O)C2(CCCC2)NC(=O)C[C@@H](C(N)=O)NC(=O)[C@H](Cc2c[nH]c3ccccc23)NC1=O" at or above 80%?
Not satisfied

Is max activation for "N=C(N)NCCC[C@@H]1NC(=O)[C@@H](Cc2ccccc2)NC(=O)[C@H](Cc2c[nH]cn2)NC(=O)C2(CCC2)NC(=O)C[C@@H](C(N)=O)NC(=O)[C@H](Cc2c[nH]c3ccccc23)NC1=O" at or above 80%?
Satisfied

Is max activation for CC1(C)NC(=O)C[C@@H](C(N)=O)NC(=O)[C@H](Cc2c[nH]c3ccccc23)NC(=O)[C@H](CCCNC(=N)N)NC(=O)[C@@H](Cc2ccccc2)NC(=O)[C@H](Cc2c[nH]cn2)NC1=O ([Aib]H[dF]RWD-NH2; lactam N-6) at or above 80%?
Satisfied
